Molecular target: MAP/microtubule affinity-regulating kinase 3 (Homo sapiens); also: in the data inactive means no Kd found up to 30 µM
Sequence (P27448 whole entry): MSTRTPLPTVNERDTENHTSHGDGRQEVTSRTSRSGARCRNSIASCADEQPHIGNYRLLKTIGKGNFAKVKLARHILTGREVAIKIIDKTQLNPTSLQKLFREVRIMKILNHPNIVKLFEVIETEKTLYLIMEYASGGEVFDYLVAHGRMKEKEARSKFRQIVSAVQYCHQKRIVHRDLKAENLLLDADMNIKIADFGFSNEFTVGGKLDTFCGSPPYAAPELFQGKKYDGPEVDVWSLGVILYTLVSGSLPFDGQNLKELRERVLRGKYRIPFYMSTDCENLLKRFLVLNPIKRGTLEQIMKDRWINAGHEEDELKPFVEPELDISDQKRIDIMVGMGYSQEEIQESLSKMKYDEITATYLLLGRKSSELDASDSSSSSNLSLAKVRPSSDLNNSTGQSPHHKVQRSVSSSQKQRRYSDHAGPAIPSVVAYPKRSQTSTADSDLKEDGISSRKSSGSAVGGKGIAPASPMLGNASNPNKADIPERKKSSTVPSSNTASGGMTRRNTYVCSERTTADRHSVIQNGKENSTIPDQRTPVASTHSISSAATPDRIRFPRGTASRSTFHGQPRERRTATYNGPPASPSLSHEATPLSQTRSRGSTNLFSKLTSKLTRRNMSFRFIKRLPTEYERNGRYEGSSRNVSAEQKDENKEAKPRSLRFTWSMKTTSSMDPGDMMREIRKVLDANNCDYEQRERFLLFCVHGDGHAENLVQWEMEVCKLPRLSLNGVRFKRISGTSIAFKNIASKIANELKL
The source made the active and inactive calls.
Field 'call' accepts 1 (active), 0 (inactive)

{"molecule": "C[C@@H](c1ccc2nccn2c1)n1nnc2ncc(-c3cnn(C)c3)nc21", "tested_target": "MAP/microtubule affinity-regulating kinase 3 (Homo sapiens)", "group_label": 0}
{"molecule": "Cn1cc(-c2ccc(F)c(C(F)(F)F)c2)nc1C1CCN(c2ncnc3[nH]ncc23)CC1", "tested_target": "MAP/microtubule affinity-regulating kinase 3 (Homo sapiens)", "group_label": 0}
{"molecule": "CCCS(=O)(=O)Nc1ccc(F)c(C(=O)c2c[nH]c3ncc(-c4ccc(Cl)cc4)cc23)c1F", "tested_target": "MAP/microtubule affinity-regulating kinase 3 (Homo sapiens)", "group_label": 0}
{"molecule": "CNC(=O)CN1CCC(Oc2cc3c(Nc4cccc(Cl)c4F)ncnc3cc2OC)CC1", "tested_target": "MAP/microtubule affinity-regulating kinase 3 (Homo sapiens)", "group_label": 0}
{"molecule": "Cn1cc(-c2ccc3nnc(C(F)(F)c4ccc5ncccc5c4)n3n2)cn1", "tested_target": "MAP/microtubule affinity-regulating kinase 3 (Homo sapiens)", "group_label": 0}

# input Please state the recorded outcome for this molecule: "Cc1cc([C@@H](C)Nc2ccccc2C(=O)O)c2nc(N3CCOCC3)cc(=O)n2c1"
# output 0

# input Look up the recorded call for "CC[C@H](Nc1ncnc2[nH]cnc12)c1nc2cccc(F)c2c(=O)n1-c1ccccc1" in this test.
# output 0

# input What classification did O=C(Nc1ccc(-c2ccnc(Nc3ccc(N4CCOCC4)cc3)n2)cc1)C1CCCN1 (stereo not drawn) end up with in this test?
# output 1
